System: MS2 coat protein
EXPERIMENT_DESCRIPTION: apparent Kd, MS2 coat protein; higher = weaker binding; RNA-MaP array; FMN 200 µM where present
EXPERIMENTAL_PARAMETERS: designed as: ON switch for flavin mononucleotide; no ligand

SEQ	apparent Kd (nM)
ACAUGAGGAUCACCCAUGUUCACAUAGGAUAUUGAUUUUAUUGGUUUUAGAAUAGUAAUUAAACUCAAGAAGGAUGCCAGUUGU	10.7
CGCUGUCACGCAGGAUAUGCAUUGGAUUACAAUGCAGAAGGGCGAUCACAUGAGGAUCACCCAUGUGUAGACAGUGAAUAAGAG	611
CGUUGAUAAUAUCUUCACAUGAGGAUCACCCAUGUCGCUCGACAGGAUAUAUUUGAGUUGUUUAAGUAGAAGGGUCGCAGAUGC	148
AAUAAACUCACAGGAUAUAGCAUAGGUCGCGUGAACUUACAGACGACUAUGCUAGAAGGGUGACCACAUGAGGAUCACCCAUGU	880
GCUGUCGCUUGAGGAUAUGGUCAGCUUUGCUGACCAGAAGGCAUGUCAAUAGACAUGAGGAUCACCCAUGUAGUAAGGGCGGCU	339
GCCCGAACCACAGGAUAUCCCAAUGUUUUACAGGGAGAAGGGUGAGAGUAUGACAUGAGGAUCACCCAUGUUGUUCGGGUGGAA	709
GUGGCCCAGGCACAGGAUAUGUUUCUCGUAACAUGAGGAUCACCCAUGUGCCUAUGAGAUUUUUUGCAGAAGGGUGCACGCCACG	229

* * *

Quick reference for apparent Kd among some sequences
Tested on: MS2 coat protein
EXPERIMENT_DESCRIPTION: apparent Kd, MS2 coat protein; higher = weaker binding; RNA-MaP array
EXPERIMENTAL_PARAMETERS: designed as: OFF switch for flavin mononucleotide; no ligand
REPORTED_PROPERTY: apparent Kd

SEQ	REPORTED_PROPERTY	VAL
GGAAUGUAAGGAUAUACCCGUAAGGUAGGGAUCGCAUCGGCGUAGAAGGUACAUGAGGAUCACCCAUGUUCAGC	apparent Kd	7.78 nM
UUGCAAGUAGGAUAUAGUAGCGAAUACAUGAGGAUCACCCAUGUAGCCAGUGUAUUGCUUCUAGAAGGACUUCUCC	apparent Kd	29.3 nM
CUAGGUCAGCUAGGAUAUACUUCUUGCAUGGAUGUAGAAGGAGCGAUAAGAUCUACAUGAGGAUCACCCAUGUUACUUAGGGUG	apparent Kd	290 nM
AAUAAACGAGGAUAUACAGAUCAAGAUUAUCUAGUGAUCCUACAUGAGGAUCACCCAUGUAGAAGGCGAGAACA	apparent Kd	51.1 nM
UGGUAUGAAGGAUAUGACUAAGUUCACAUGAGGAUCACCCAUGUAACGUCCUCGACAUGUUCAGAAGGUCAGGCGA	apparent Kd	11.7 nM
ACAUGCUCUGAGGAUAUCAAUAAUCCCUAUUACUGAGAAGGCAGCACAUGAGGAUCACCCAUGUGAGGUGAGUC	apparent Kd	34.5 nM
UUUACAUGAGGAUCACCCAUGUUCCCUUGUGACACGUUUUUCAGAAGGACAGGCAUAAUUUGGAUGUAGGAUAUGAAUUAGUGC	apparent Kd	24.9 nM
GGGUGACAUGAGGAUCACCCAUGUCAGGAUAUGGACUCGAAAUUAGGUAUGAAUCACGCCAGAAGGGACCGGGC	apparent Kd	55 nM
GACGAAUCGGCAGGAUAUCUAGAUGAGCCAGAAUGUAAUUGAGUUGACAUGAGGAUCACCCAUGUAGAGAAGGGCCCAUCCAUU	apparent Kd	12.1 nM
GGAUCGCGAGGAUAUACAUGAGGAUCACCCAUGUUUACUCACACAUUUUUAUUCUUCCGUAGAAGGCGCGCAAG	apparent Kd	5.52 nM
GCACGACAUGAGGAUCACCCAUGUGAGGAUAUACUACAUCAGGAACACGCUAUGCACGGUAGAAGGCACGGGAG	apparent Kd	16.4 nM
GAUAAGGAAGGAUAUACAAAGGAACAAAUACACAUUCUAAAACAUGAGGAUCACCCAUGUAGAAGGACCAACAA	apparent Kd	6.97 nM
AUGAUCAUAGUAAGGAUAUCCGGACCAAUAGCAAAGGAGAAGGUACAUGAGGAUCACCCAUGUUUAUUAAUACU	apparent Kd	9.11 nM
GUACGGUGAGGAUAUCGUUAAGAUGUGGACAGGCCUACAUACGAGAAGGCACAUGAGGAUCACCCAUGUUCAUA	apparent Kd	21.5 nM
AUCACAUGAGGAUCACCCAUGUUAGGUAGAUGCAGUAAAGUCUAGGAUAUAAGCUUGUGAAGUAGUUAGAAGGAGACACAUGAG	apparent Kd	22.9 nM
